src = PubChem BioAssay (NCI)

system: MDA-MB-231 breast; experiment: NCI tumour cell line growth inhibition, 48 h; in the data active means GI50 below about 0.43 µM; inactive means the rest
Outcomes: active, inactive

1. Cn1cc(-c2nonc2-c2c[nH]c3ccccc23)c2ccccc21 : inactive
2. COc1cc(-c2nn3c(/C=C4/C(=O)Nc5ccccc54)c(-c4ccc(C)cc4)nc3s2)cc(OC)c1OC : inactive
3. COc1cc2c(cc1OCCCN1CCN(CCCOc3cc4c(cc3OC)C(=O)N3CCC[C@H]3C=N4)CC1)C=CC(C)(C)O2 : inactive
4. Cc1nc2sccn2c1/C=C1/C(=O)Nc2ccccc21 : inactive
5. NS(=O)(=O)c1ccc(NC(=O)c2ccc(NC3=C(Cl)C(=O)N(Cc4ccccc4)C3=O)cc2)cc1 : inactive
6. COc1cc(/C(Cl)=C/C=C/C(=O)c2c(C)[n+]([O-])c3ccc(Cl)cc3[n+]2[O-])cc(OC)c1OC : inactive
7. O=C(/C=C/c1ccc(B(O)O)cc1)/C=C/c1ccc(B(O)O)cc1 : inactive
8. COC1=CC(c2ccc[nH]2)=N/C1=C\c1[nH]c(C)c(C(=O)OCc2ccccc2)c1C : active
9. C=C1C(=O)O[C@H]2[C@H]1CC/C(CNC(=O)/C=C/c1ccc(Br)cc1)=C\CC[C@@]1(C)O[C@@H]21 : inactive
10. Cc1c2cnccc2c(C)c2c1c1cc(C3OCCCO3)ccc1n2C : active
11. Cc1[nH]ncc1-c1cc2nc(C3CC4CCN3CC4)[nH]c(=O)c2s1 (configuration not stated) : inactive
12. C=CC(=O)Nc1ccc(Nc2nccc(-c3ccc(N4CCCC4)c(C#N)c3)n2)cc1 : inactive
13. O=C(Nc1ccc(Cl)cc1Cl)c1ccc(NC2=C(Cl)C(=O)N(Cc3ccccc3)C2=O)cc1 : inactive
14. O=[N+]([O-])c1ccc(Nc2ccccc2-c2ccccc2)c2nonc12 : inactive
15. COc1cccc2c1C(=O)c1c(O)c3c(c(O)c1C2=O)CC(O)(C(C)=O)CC3OC1CC(N)C(O)C(C)O1 (configuration not stated) : inactive
16. Cc1c2cc[nH]c(=O)c2c(C)c2c1[nH]c1cc(OCCN3CCN(C)CC3)ccc12 : inactive
17. CC(=O)C1=C(O)C=C2Oc3c(C(=O)/C=C/c4cc(C(F)(F)F)cc(C(F)(F)F)c4)c(O)c(C)c(O)c3[C@]2(C)C1=O : inactive

----------
system: NCI/ADR-RES ovarian; experiment: NCI tumour cell line growth inhibition, 48 h; in the data active = GI50 below about 0.43 µM; inactive = the rest
Outcomes: active, inactive

1) Cc1c2cnccc2c(C)c2c1c1cc(C3OCCCO3)ccc1n2C : active
2) C=C(CNC(=O)Nc1ccc(-c2ccccc2)cc1)c1ccc(C(=O)Nc2ccccc2N)cc1 : inactive
3) Cc1cc(C)nc(NC(N)=NCCc2ccccc2)n1 : inactive
4) COc1cc(/C(Cl)=C/C=C/C(=O)c2c(C)[n+]([O-])c3ccc(Cl)cc3[n+]2[O-])cc(OC)c1OC : inactive
5) C[n+]1c(/C=C\C=C\N2CCCCC2)sc2ccccc21 : inactive

----------
Catalogue of compounds with associated TGI
tested on: HCC-2998 colon; assay: NCI tumour cell line growth inhibition, 48 h
measured metric: TGI

1) N#Cc1cccc(N2C(=O)c3c(c(-c4ccccc4)c(-c4ccc(Sc5ccc(-c6c(-c7ccccc7)c7c(c(-c8ccccc8)c6-c6ccccc6)C(=O)N(c6cccc(C#N)c6)C7=O)cc5)cc4)c(-c4ccccc4)c3-c3ccccc3)C2=O)c1 : > 100 µM
2) C=C(CNC(=O)Nc1ccc(-c2ccccc2)cc1)c1ccc(C(=O)Nc2ccccc2N)cc1 : > 100 µM
3) CCOC(=O)c1cccc(NC(=O)CCl)c1 : 7.93 µM
4) O=c1cc(CNC2CCCC2)[nH]c(=O)[nH]1 : > 100 µM
